# ASSAY PROTOCOL: Part 1 SAD: plasma pharmacokinetics after single oral dose
# Format: in vivo, human
# COND: human, plasma, oral; 50 mg single dose, geometric mean
ASSAY ENDPOINT: Cmax (ng/mL)

> print(dat)
                                   compound  reported.value
1  CS(=O)(=O)N[C@H]1CCCN2C(=O)COc3ccccc3C3CCC(CC3)OCC12 (stereo partly shown) [Compound A]            29.3

---

# ASSAY PROTOCOL: Part 2 MAD: plasma pharmacokinetics, once daily for 10 days
# Type: in vivo, human
# COND: human, plasma, oral, 25 mg, Day 1, median; read-out: Tmax
ASSAY ENDPOINT: Tmax

> print(dat)
                                   compound  assay.endpoint  reported.value
1  CS(=O)(=O)N[C@H]1CCCN2C(=O)COc3ccccc3C3CCC(CC3)OCC12 (stereo partly shown)            Tmax          1.25 h

Hello, the source for this data is patent US20250186405A1, in case you need it.
